Attribution: paper PMC5308896

- tested-system: T1, HUWE1 (3810–4374) (human, UniProt Q7Z6Z7 3810-4374)
- T1 construct: source: LOBSTR RIL cells, purified (IMAC, gel filtration)
- T1 sequence (looked up): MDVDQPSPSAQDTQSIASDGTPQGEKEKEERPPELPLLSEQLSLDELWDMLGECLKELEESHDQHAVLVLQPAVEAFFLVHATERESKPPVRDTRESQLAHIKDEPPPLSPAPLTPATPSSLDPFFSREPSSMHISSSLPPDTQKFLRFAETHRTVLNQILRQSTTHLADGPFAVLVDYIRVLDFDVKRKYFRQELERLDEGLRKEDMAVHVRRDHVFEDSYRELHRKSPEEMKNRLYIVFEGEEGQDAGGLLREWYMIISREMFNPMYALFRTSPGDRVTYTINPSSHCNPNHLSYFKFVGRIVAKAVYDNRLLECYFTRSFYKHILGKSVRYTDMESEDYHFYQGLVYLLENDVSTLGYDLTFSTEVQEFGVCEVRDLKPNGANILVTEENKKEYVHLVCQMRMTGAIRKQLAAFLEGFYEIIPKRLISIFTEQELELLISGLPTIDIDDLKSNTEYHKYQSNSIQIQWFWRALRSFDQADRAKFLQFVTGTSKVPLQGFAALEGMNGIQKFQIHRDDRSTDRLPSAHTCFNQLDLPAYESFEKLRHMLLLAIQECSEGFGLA
- measurement-protocol: fluorescence polarisation; apparent KD; constant 1 μM TAMRA-labelled p14ARF (45–64) peptide titrated with HUWE1 protein; 25°C, 20 mM HEPES pH 8.0, 150 mM NaCl, 10% glycerol, 1 mM EDTA, 5 mM DTT; three independent experiments
- test-parameters: both partners purified
Ends that are not written are not given here.
observable: pKd
Entry type: numeric. Quantity: pKd, the -log10 of concentration in molar units.

# return recorded pKd for entry LVLMLLRSQRLGQQPLPRRPK(TAMRA) (p14ARF (alternative reading frame product of CDKN2A), human, residues 45–64; additional lysine residue at the C-terminus that carries the TAMRA label (told in words); also called p14ARF-peptide; p14ARF (45-64); source: synthetic peptide, bought: Elim Biopharm) [fluorophor-labeled p14ARF-derived peptide (residues 45–64), TAMRA-labelled]
5.22
